Source listed as patent US12030880B2.

What IC50 was measured for each of the following?
tested on: Kasumi-1 cells; test: Cell proliferation activity assay in Kasumi-1; type: cell-based; conditions: Homo sapiens, inhibiting cell proliferation, 72 hours, Cell-Titer Blue
Kindly provide the numeric value in nM only, without the unit symbol.

Sample CCNC(=O)c1cc2c(-c3cc(N=S(C)(C)=O)ccc3Oc3ccc(S(C)(=O)=O)cc3)cn(C)c(=O)c2[nH]1 [Example 1] — what was its IC50?
322

Need IC50, item Cn1cc(-c2cc(N=S(C)(C)=O)ccc2Oc2ccc(C#N)cc2F)c2cc[nH]c2c1=O [Example 2]
6.6

Please report the recorded IC50 for Cn1cc(-c2cc(N=S(C)(C)=O)ccc2OCC2CCOC2)c2cc[nH]c2c1=O (stereo not shown) [Example 12] .
20.7

Any idea what IC50 was measured for Cn1cc(-c2cc(N=S(C)(C)=O)ccc2Nc2ccc(F)cc2F)c2cc[nH]c2c1=O [Example 8] ?
9.3
